- Target or test system: LmxCLK1 (Leishmania mexicana)
- Sequence (E9AMP2 1-422): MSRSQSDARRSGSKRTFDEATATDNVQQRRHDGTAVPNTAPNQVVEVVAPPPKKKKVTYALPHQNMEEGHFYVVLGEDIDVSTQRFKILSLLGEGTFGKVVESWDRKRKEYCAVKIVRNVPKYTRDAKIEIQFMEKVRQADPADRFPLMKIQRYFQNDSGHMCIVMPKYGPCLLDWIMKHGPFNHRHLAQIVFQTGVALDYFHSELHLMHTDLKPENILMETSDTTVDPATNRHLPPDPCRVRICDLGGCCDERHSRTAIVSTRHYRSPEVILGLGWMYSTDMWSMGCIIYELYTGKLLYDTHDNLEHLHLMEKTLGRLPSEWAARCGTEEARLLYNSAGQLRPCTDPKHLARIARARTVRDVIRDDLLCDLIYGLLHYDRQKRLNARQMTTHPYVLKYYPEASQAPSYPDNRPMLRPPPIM
- Measurement protocol: biochemical
- Format: binding
- Test settings: DSF, 10 µM compound, 2 µM LmxCLK1, Run 2
Could you please report measured ΔTm Run 2 for the items listed next?
Write it as a number; the unit °C goes unstated.

Qu. Reported ΔTm Run 2 for Nc1ncnc2c1c(-c1cnc3[nH]ccc3c1)nn2C1CCCC1 [PP121] : what is it?
Ans. 0.7

Qu. Would you mind telling me what ΔTm Run 2 value was observed for O=C(c1ccc(Nc2nccc(-c3cc4ccccc4s3)n2)cc1)N1CCC(N2CCCC2)CC1 [IKK-16 (IKK Inhibitor VII)] ?
Ans. 1.6

Qu. For the molecule shown here, Cc1cc(CN2CCN(c3c(Br)cnc4nc(-c5ccc(N6CCN(C)CC6)cc5)[nH]c34)CC2)no1 [CCT137690] , give the reported ΔTm Run 2.
Ans. 0.4

Qu. GET /values?readout=ΔTm Run 2&item= CS(=O)(=O)c1cccc(CNc2nc(Nc3ccc4c(c3)CCC(=O)N4)ncc2C(F)(F)F)c1 [PF-573228]
Ans. -0.3

Qu. Need ΔTm Run 2 of CCn1c(N)c(C(=O)NC)c(=O)c2ccc(C#C[C@@](C)(O)COC)nc21 [SAR131675] , thanks.
Ans. -0.1

Qu. Reported ΔTm Run 2 for CNC(=O)c1cc(Oc2ccc(NC(=O)Nc3ccc(Cl)c(C(F)(F)F)c3)c(F)c2)ccn1 [Regorafenib (BAY 73-4506)] : what is it?
Ans. -0.3

Qu. Fill in: ΔTm Run 2 of CN1CCCN(C(=O)c2cccc(-c3ccc(/C=C4/C(=O)Nc5ccc(Cl)cc54)o3)c2)CC1.Cl [CX-6258 HCl] is ___
Ans. -0.4

Qu. Recorded ΔTm Run 2 of COc1ccc(CNC(=O)Nc2ncc([N+](=O)[O-])s2)cc1 [AR-A014418] , please.
Ans. -0.1

---

- Target or test system: LmxCLK1 (Leishmania mexicana)
- Measurement protocol: biochemical
- Format: binding
- Test settings: DSF, 10 µM compound, 2 µM LmxCLK1, mean of two runs; read-out: ΔTm Average
Structures can show the parent of a compound that is named as a salt.
What ΔTm at 10 µM was measured for each of the following?
# output: bare number, implied unit °C

Qu. Fill blank: measured ΔTm at 10 µM of the molecule Nc1nc(Nc2ccc(S(N)(=O)=O)cc2)nn1C(=O)c1c(F)cccc1F is ____.
Ans. 1.6

Qu. Report ΔTm at 10 µM for O=C(Nc1cccc(Cl)c1)Nc1ncc(CCNc2ncnc3ccsc23)s1 [SNS-314 Mesylate] please.
Ans. 5.9

Qu. Quick check: ΔTm at 10 µM of Cc1ncc(-c2ccnc(Nc3ccc(S(C)(=O)=O)cc3)n2)n1C(C)C ?
Ans. 1

Qu. Could you share which ΔTm at 10 µM value was measured for CCNC(=O)Nc1ccc(-c2nc3c(c(N4CCOC[C@@H]4C)n2)CCN(C2COC2)C3)cc1 ?
Ans. -0.1

Qu. Recorded ΔTm at 10 µM of CC1=C(C(=O)Nc2cc3cn[nH]c3cc2F)C(c2ccc(C(F)(F)F)cc2)CC(=O)N1 (centres unmarked) [GSK429286A] , please.
Ans. 0.1

Qu. Tell me the measured ΔTm at 10 µM of Cc1nc(N)sc1-c1ccnc(Nc2ccc(N3CCOCC3)cc2)n1 , please.
Ans. 0.1

Qu. Which measured ΔTm at 10 µM value corresponds to O=C(Nc1nc2cccc(-c3ccc(CN4CCS(=O)(=O)CC4)cc3)n2n1)C1CC1 ?
Ans. -0.1

Qu. Recorded ΔTm at 10 µM of CC(C)(C)c1cc(/C=C(\C#N)C(N)=S)cc(C(C)(C)C)c1O , please.
Ans. -0.2

Qu. Consider the molecule shown here: Cc1cc(Nc2cc(CN3CCOCC3)c3nc(C)c(Cc4ccc(Cl)cc4F)n3n2)n[nH]1 What is its recorded ΔTm at 10 µM?
Ans. -0.4

Qu. What value of measured ΔTm at 10 µM is listed for CCCNC(=O)Nc1ccc(Oc2ncnc3cc(OC)c(OC)cc23)cc1Cl ?
Ans. 0

Qu. Quick check: ΔTm at 10 µM of CC(C)(O)CC(=O)NCCn1ccc2ncnc(Nc3ccc(Oc4cccc(C(F)(F)F)c4)c(Cl)c3)c21 ?
Ans. -0.3

Qu. Could you tell me which ΔTm at 10 µM is on file for CCCS(=O)(=O)Nc1ccc(F)c(C(=O)c2c[nH]c3ncc(Cl)cc23)c1F ?
Ans. -0.2

Qu. Which ΔTm at 10 µM value belongs to C[C@@H](Oc1cc(-n2cnc3ccc(CN4CCN(C)CC4)cc32)sc1C(N)=O)c1ccccc1C(F)(F)F ?
Ans. 0.4

Qu. Using the record for COc1cccc2cc(-c3nc([C@H]4CC[C@H](C(=O)O)CC4)n4ncnc(N)c34)[nH]c12 , report its ΔTm at 10 µM.
Ans. -0.2

Qu. Report ΔTm at 10 µM for CS(=O)(=O)N1CCN(Cc2cc3nc(-c4cccc5[nH]ncc45)nc(N4CCOCC4)c3s2)CC1 please.
Ans. 0.1

Qu. Quick check: ΔTm at 10 µM of O=C(NC1CCNCC1)c1[nH]ncc1NC(=O)c1c(Cl)cccc1Cl ?
Ans. 0.4

Qu. Please give the measured ΔTm at 10 µM for this molecule: Oc1c2ccccc2c2c3c(cccc13)N=N2
Ans. -0.1

---

Assign Target occupancy Average to each entry below.
- Target or test system: NLuc::LmxCLK1 (Leishmania mexicana, UniProt E9AMP2)
- Measurement protocol: cell-based
- Assay type: cell-based
- Test settings: 10 µM compound, tracer SV366, promastigotes, mean of two experiments
- Procedure: All compounds were tested at a fixed concentration of 10 µM to enable direct comparison of their target occupancy in live cells. Serially diluted probes (5 µL) were added to 85 µL of cells in culture media or 85 µL of purified protein. […] Light emissions at 460+10 nm (BRET donor) and at 610+20 nm (BRET acceptor) were sequentially recorded (integration time = 0.5 s, gain = 3600) using a luminometer (BMG LABTECH Clariostar or Biotek Synergy HT). […]
// note: answer is a bare numeric in %

Qu. If you can, please state the reported Target occupancy Average value of Nc1ncnc2c1c(-c1cnc3[nH]ccc3c1)nn2C1CCCC1 [PP121] .
Ans. -7.6

Qu. GET /values?readout=Target occupancy Average&item= COc1cc2ncnc(Nc3ccc(F)c(Cl)c3)c2cc1NC(=O)/C=C/CN1CCCCC1 [Dacomitinib (PF299804)]
Ans. -6.4

Qu. // query Target occupancy Average value for entry COC(=O)c1ccc2c(c1)NC(=O)/C2=C(\Nc1ccc(N(C)C(=O)CN2CCN(C)CC2)cc1)c1ccccc1 [Nintedanib (BIBF 1120)]
Ans. -6.6

Qu. Bench note: what Target occupancy Average did Cc1ccc(S(=O)(=O)/C=C/C#N)cc1 [BAY 11-7082] show?
Ans. -15.9

Qu. Data request, read-out Target occupancy Average, for COc1cc(N2CCC(N)CC2)ccc1Nc1ncc(Cl)c(-c2c[nH]c3ccccc23)n1 [AZD3463]
Ans. -2.4

Qu. Report Target occupancy Average for COc1cc(Nc2ncc(F)c(Nc3ccc4c(n3)NC(=O)C(C)(C)O4)n2)cc(OC)c1OC [R406] please.
Ans. 0.2

Qu. For CC[C@H](Nc1ncnc2[nH]cnc12)c1nc2cccc(F)c2c(=O)n1-c1ccccc1 [CAL-101 (Idelalisib)] , what is its reported Target occupancy Average?
Ans. 0.1

Qu. // Target occupancy Average lookup, key: COc1cc(Nc2ncc(F)c(Nc3ccc4c(n3)N(COP(=O)(O)O)C(=O)C(C)(C)O4)n2)cc(OC)c1OC [Fostamatinib (R788)]
Ans. -8.5

Qu. For the compound shown here, COc1cc(Nc2c(C#N)cnc3cc(OCCCN4CCN(C)CC4)c(OC)cc23)c(Cl)cc1Cl [Bosutinib (SKI-606)] , give the reported Target occupancy Average.
Ans. -14.2

Qu. Would you mind telling me what Target occupancy Average value was observed for CCN1/C(=C/C(C)=O)Sc2ccc(OC)cc21 [TG003] ?
Ans. -2.5

Qu. So what does the record say about Target occupancy Average for O=C(O)[C@]1(Cc2cccc(Nc3nccs3)n2)CC[C@@H](Oc2cccc(Cl)c2F)CC1 [MK-5108 (VX-689)] ?
Ans. -0.9

Qu. May I ask what Target occupancy Average has been recorded for COc1cc2ncnc(Nc3ccc(O)c(Br)c3)c2cc1OC [WHI-P154] ?
Ans. -2.8

Qu. Fill blank: measured Target occupancy Average of the compound COc1ccc(Cl)cc1NC(=O)Nc1cc(C)nc2ccccc12 [PQ 401] is ____.
Ans. -1.4

Qu. Look at this compound and give its reported Target occupancy Average. C#Cc1cccc(Nc2ncnc3cc(OCCOC)c(OCCOC)cc23)c1.Cl [Erlotinib HCl (OSI-744)]
Ans. -3.7

Qu. Recorded Target occupancy Average of Cc1ccc(NC(=O)c2cccc(N(C)C)c2)cc1NC(=O)c1ccc(O)cc1 [ZM 336372] , please.
Ans. -5.5

Qu. Entry CN1CCCN(C(=O)c2cccc(-c3ccc(/C=C4/C(=O)Nc5ccc(Cl)cc54)o3)c2)CC1.Cl [CX-6258 HCl] has what Target occupancy Average?
Ans. -13.6

Qu. Suppose we examine the compound C[C@H](Nc1ncnc2nc[nH]c12)c1cc2cccc(Cl)c2c(=O)n1-c1ccccc1 [IPI-145 (INK1197)] ; what Target occupancy Average value has been reported?
Ans. -1.1

Where do these numbers come from? They come from paper PMC7619385.
